Recorded pIC50 values for a group of compounds are listed next.
- assay-name: Inhibition of tau K19 protein (unknown origin) aggregation by thioflavin S fluorescence assay
- Set-up: species or system Homo sapiens
Please express pIC50 as -log10 of the molar concentration.

smiles_str=O=C(O)CCN1C(=O)/C(=C/c2ccc(-c3cccc(Cl)c3)s2)SC1=S quantitative_result=6.01
smiles_str=O=C(O)CCN1C(=O)/C(=C/c2ccc(-c3cccc(Cl)c3)o2)SC1=S quantitative_result=6.33

Attention now turns to another entry.
Recorded pIC50 (compound O=C1/C(=C/c2ccc(-c3cccc(Cl)c3)o2)SC(=S)N1Cc1nc2ccccc2[nH]1 ): 6.17

###

- measured-on: Amyloid-beta precursor protein (Homo sapiens, UniProt P05067)
- Sequence (P05067 whole entry): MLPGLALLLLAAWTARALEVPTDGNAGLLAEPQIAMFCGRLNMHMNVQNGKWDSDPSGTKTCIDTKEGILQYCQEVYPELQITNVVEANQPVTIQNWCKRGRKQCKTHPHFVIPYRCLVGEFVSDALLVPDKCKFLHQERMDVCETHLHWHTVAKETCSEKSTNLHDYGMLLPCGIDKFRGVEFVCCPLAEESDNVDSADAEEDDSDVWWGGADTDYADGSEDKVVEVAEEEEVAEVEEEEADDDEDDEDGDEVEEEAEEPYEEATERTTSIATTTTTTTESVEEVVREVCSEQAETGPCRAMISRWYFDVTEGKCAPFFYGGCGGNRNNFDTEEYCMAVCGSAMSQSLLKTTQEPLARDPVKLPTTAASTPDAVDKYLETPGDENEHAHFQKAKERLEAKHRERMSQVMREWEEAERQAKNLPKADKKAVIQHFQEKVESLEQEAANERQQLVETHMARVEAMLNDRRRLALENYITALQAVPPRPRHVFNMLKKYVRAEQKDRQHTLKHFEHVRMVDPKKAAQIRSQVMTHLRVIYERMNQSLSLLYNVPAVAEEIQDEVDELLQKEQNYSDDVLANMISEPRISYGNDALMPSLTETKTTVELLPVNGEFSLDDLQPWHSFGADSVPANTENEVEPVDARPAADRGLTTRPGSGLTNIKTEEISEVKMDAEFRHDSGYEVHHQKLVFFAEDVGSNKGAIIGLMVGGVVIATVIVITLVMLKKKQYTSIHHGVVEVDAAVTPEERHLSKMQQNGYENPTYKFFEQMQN
- assay-name: Inhibition of amyloid beta (1 to 40) (unknown origin) fibril formation after 18 hrs by DELFIA
quantity: pIC50
A value of pIC50 is the negative decimal logarithm of a concentration given in moles per litre.

get_value(item= COc1ccccc1OCCNCC(O)COc1cccc2[nH]c3ccccc3c12 (stereo unspecified) , readout=pIC50) returns 4.52
